This listing pairs sequences with measured protein stability index.
experiment: protein stability index of a GFP-peptide fusion (GPS, HEK-293T) (PSI 1-6); higher = more stable; conditions: treatment: MLN4924 1 uM, 8 h; c terminus: a fixed tail appended;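 note: 24-mer peptide tiles fused after GFP, lentivirally expressed, FACS-sorted into six equal bins by GFP/DsRed ratio, decoded by Illumina sequencing, PSI is the read-weighted mean bin number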
assayEndpoint: protein stability index

>  <residueSequence>
EQHGKKVPTVSRPYSFIEFDTFIQ [SEC22B]

>  <measured>
2.95

$$$$
>  <residueSequence>
LPERRGTCADRDNLTRRFSDLGFE [CASP6]

>  <measured>
3.09

$$$$
>  <residueSequence>
EISAYRKLLQGEEERLKLSPSPSS [LMNB1]

>  <measured>
4.16

$$$$
>  <residueSequence>
PKARKQGVSPADMYRWKLSSHEPC [ADAMTSL2]

>  <measured>
3.25

$$$$
>  <residueSequence>
HEDLLTRIGEATKPDGTVEQIGHI [NET1]

>  <measured>
4.93

$$$$
>  <residueSequence>
GTLLFYIGGHLVRDNDHPDHSSRE [FUT8]

>  <measured>
2.55

$$$$
>  <residueSequence>
LWEALCSQGAISEGAQRDRFPGRK [C22orf31]

>  <measured>
3.3

$$$$
>  <residueSequence>
SAVLFYVNMYVSIVFFGLISFDRY [P2RY14]

>  <measured>
3.22

$$$$
>  <residueSequence>
DFLCLLGVSYTFDNEDSELNGDYG [MIA2]

>  <measured>
2.34

$$$$
>  <residueSequence>
RLASYLDKVRALEEANADLEVKIR [KRT16]

>  <measured>
2.59

$$$$
>  <residueSequence>
TGELVGPFVSAMPTPMPHNKGTRF [ZBED2]

>  <measured>
3.79

$$$$

* * *

assay: protein stability index of a GFP-peptide fusion (GPS, HEK-293T) (PSI 1-6); higher = more stable; conditions: treatment: MLN4924 1 uM, 8 h; c terminus: a fixed tail appended
assayEndpoint: protein stability index

>  <residueSequence>
NNQDFIPFTKKRVGVDRAFPLKPM [ZC2HC1C]

>  <measured>
3.26

$$$$
>  <residueSequence>
KHSSTSSRIAKGGVDHTKMSLHGA [BTBD10]

>  <measured>
3.79

$$$$
>  <residueSequence>
RDKARLLREKVEFLRSLRQMKQKV [NFE2L1]

>  <measured>
3.14

$$$$
>  <residueSequence>
GRAENGERSDLEEDNEREGTENGA [ZC3H15]

>  <measured>
5.57

$$$$
>  <residueSequence>
QKKIESYLHNHFIGEGMTKYDYLM [TENT5D]

>  <measured>
2.18

$$$$
>  <residueSequence>
KVEKMLISSIKEKYPSHSFIGEES [IMPA1]

>  <measured>
3.17

$$$$
>  <residueSequence>
CYVSRRLSQLSSHDPLWRRHCKKY [FBXO3]

>  <measured>
2.4

$$$$
>  <residueSequence>
QFANLVLHQTVERIHVGKKYGDIP [LSM1]

>  <measured>
2.09

$$$$
>  <residueSequence>
EGAFGEHGSQGTYSNTKENGINGE [MAP2]

>  <measured>
5.25

$$$$
>  <residueSequence>
SSHKQGHTSSEYDMLREMFSDSRS [TAF7L]

>  <measured>
4.13

$$$$
>  <residueSequence>
DLRHLRAVPTDEARAFAEKNGLSF [RAB11A]

>  <measured>
3.52

$$$$
>  <residueSequence>
YHAVVEPMLWNPSGTPKRYSLELG [C22orf31]

>  <measured>
2.81

$$$$
>  <residueSequence>
NESSLASTLKTLLFFTALMITVPI [VMA21]

>  <measured>
3.07

$$$$
>  <residueSequence>
FTDFNATSALFWEQHDLVYGDWTS [CLPTM1]

>  <measured>
2.53

$$$$
>  <residueSequence>
ELDDPGQPVSLRRRKREVLVEDMV [ZNF24]

>  <measured>
4.68

$$$$
>  <residueSequence>
AGSVVAAVQGLNLRSPNNFLSYYR [CCND1]

>  <measured>
2.61

$$$$
>  <residueSequence>
RAKCRNMEHALREKAKAFWAMRRS [TRIM35]

>  <measured>
2.3

$$$$
>  <residueSequence>
LTPLELLLRQLGRDAGATPSAAGA [ANKRD9]

>  <measured>
2.58

$$$$
>  <residueSequence>
AGTAGVGETGSGDQAGGEGKHITV [MYOZ1]

>  <measured>
5.05

$$$$
>  <residueSequence>
ERLVAQFPSSGRFWKLYIEAEVTI [CSTF3]

>  <measured>
2.71

$$$$
>  <residueSequence>
DYLPLTALVDGQIFCLHGGLSPSI [PPP2CA]

>  <measured>
2.21

$$$$
>  <residueSequence>
GYLDYRKKAIKDLGISPSTCSFNP [GLT8D2]

>  <measured>
2.89

$$$$
>  <residueSequence>
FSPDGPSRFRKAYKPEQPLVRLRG [LOXL2]

>  <measured>
3.39

$$$$
